The measurements presented in this section are drawn from PubChem BioAssay AID1671189.

Target: Polyunsaturated fatty acid lipoxygenase ALOX12 (Homo sapiens)
Assay: Confirmatory qHTS assay for inhibitors of human arachidonate 12S-lipoxygenase (ALOX12): Round 2
Details: purified human 12-LOX, xylenol orange absorbance; series mostly up to 125 µM
Text: Assay Provider: Theodore R. Holman Ph.D. University of California, Santa Cruz, California Human lipoxygenase 12hLO is a member of the closely related lipoxygenase family of enzymes which catalyze the site-specific oxidation of arachidonic acid to various hormone precursor molecules and as such is a candidate for drug development in a variety of disease areas, such as cancer and inflammation. […] The Fe (III)-XO complex is characterized with red-shifted absorbance at 560 nm. […]
Hit rate of the full screen: of about 1,100 compounds, about 70 (6%) were called active. Not shown: some 22% with an inconclusive outcome. Calls follow the shape of the dose curve; as a rule, active = well fitted curve in the direction sought with a large enough effect; inconclusive = small, poorly fitted or top-dose-only effect, or another doubt; inactive = no such curve, though single readings can be large or run the other way. The full list was thinned out, with actives kept by preference.
Outcome codes: 1 (yes) = active, 0 (no) = inactive

{"compound": "O=C(OCC#CCSc1nnc(-c2cccc3ccccc23)o1)c1sccc1Cl", "group": "0 (no)"}
{"compound": "CNC(=O)[C@@H](C1CCCCC1)N1CCC[C@H]1C(=O)N1CCC1", "group": "1 (yes)"}
{"compound": "O=C1c2ccccc2CN1C1CCN(Cc2ccsc2)CC1", "group": "0 (no)"}
{"compound": "COc1ccc(N2CC3CCC(C2)N3C(=O)c2ccc3c(c2)OCO3)cc1", "group": "0 (no)"}
{"compound": "Cc1ccc2nc(C3CCCN(Cc4ccccc4)C3)[nH]c(=O)c2c1 (configuration not stated)", "group": "0 (no)"}
{"compound": "CN1CC(=O)N(C2CCNCC2)Cc2c(NCCc3cccc(F)c3)ncnc21", "group": "0 (no)"}
{"compound": "O=C1NCc2ccccc2CC12CCN(Cc1ccc(Cl)o1)C2 (configuration not stated)", "group": "0 (no)"}
{"compound": "COc1cccc(N2C(=O)NC(=NC3CCCC3)C23CCCN(CC2CC2)C3)c1 (configuration not stated)", "group": "0 (no)"}
{"compound": "CCOC(=O)Cn1c(=O)n(-c2ccccc2OC)c2nc(-c3ccccc3F)nc(C(N)=O)c21", "group": "1 (yes)"}
{"compound": "CCOC(=O)Cn1c(=O)n(-c2ccccc2OC)c2nc(-c3cccc(F)c3)nc(C(N)=O)c21", "group": "1 (yes)"}
{"compound": "O=Cc1ccccc1-c1ccc(O)cc1", "group": "0 (no)"}
{"compound": "COc1ccc(N2CC3CCC(C2)N3Cc2cccc(Cl)c2)cc1", "group": "0 (no)"}
{"compound": "CC(C)c1ccc(CNC(=O)C2CCN(c3cc(C(F)(F)F)ncn3)CC2)cc1", "group": "0 (no)"}
{"compound": "CCc1nc2c(c(-c3ccc(OC)cc3)n1)CCN(Cc1ccc(OC)cc1)CC2", "group": "0 (no)"}
{"compound": "OC1(CN2CCN(c3nccs3)CC2)CCCNC1 (configuration not stated)", "group": "0 (no)"}
{"compound": "CN1CC(=O)N(C2CCNCC2)Cc2c1ncnc2N1CCc2ccccc2C1", "group": "0 (no)"}
{"compound": "CC1CCCN(c2ncnc3c2CN(C2CCCNCC2)C(=O)CN3C)C1 (configuration not stated)", "group": "0 (no)"}
{"compound": "N[C@@H]1CC[C@H](C(=O)N2CCC(c3nccn3Cc3ccncc3)CC2)C1", "group": "0 (no)"}
{"compound": "CCC(=O)NC(c1ccco1)c1cc(Cl)c2cccnc2c1OC (configuration not stated)", "group": "0 (no)"}
{"compound": "COc1ccc(CNc2ncnc3c2CN(C2CCCNCC2)C(=O)CN3C)cc1 (configuration not stated)", "group": "0 (no)"}
{"compound": "COc1cccc(N2C(=O)NC(=NC3CCCCC3)C23CCCN(C(=O)c2ccccc2)C3)c1 (configuration not stated)", "group": "0 (no)"}
{"compound": "CC(C)Nc1ncnc2c1CN(C1CCCNC1)C(=O)CN2C (configuration not stated)", "group": "0 (no)"}
